Data origin, for the record: patent US11084847B2

experimentNotes: Ability of compounds to pass through the blood-brain barrier (plasma and brain tissue concentration)
Format: in vivo
appliedConditions: rat, brain; male rats, iv 1 mg/kg, 60 min after administration; read-out: Concentration in brain tissue
parameterMeasured: concentration at 60 min

compound="COCCOCCNCCCC[C@@H](NC(=O)[C@@H](CC(C)C)NC(=O)[C@@H](Cc1ccccc1)NC(=O)[C@H](N)Cc1ccccc1)C(=O)N1CCC(N)(C(=O)O)CC1 [Example 5]" testvalue="0 ng/mL"

====

experimentNotes: Ability of compounds to pass through the blood-brain barrier (plasma and brain tissue concentration)
Type: in vivo
appliedConditions: rat, plasma; male rats, iv 1 mg/kg, 15 min after administration; read-out: Concentration in peripheral plasma
parameterMeasured: concentration at 15 min (ng/mL)

compound="COCCOCCNCCCC[C@@H](NC(=O)[C@@H](CC(C)C)NC(=O)[C@@H](Cc1ccccc1)NC(=O)[C@H](N)Cc1ccccc1)C(=O)N1CCC(N)(C(=O)O)CC1 [Example 5]" parametermeasured="concentration at 15 min" unit=ng/mL testvalue=716
